# assayed system: recombinant human MMP-3 (Homo sapiens)
# Sequence (P08254 100-477): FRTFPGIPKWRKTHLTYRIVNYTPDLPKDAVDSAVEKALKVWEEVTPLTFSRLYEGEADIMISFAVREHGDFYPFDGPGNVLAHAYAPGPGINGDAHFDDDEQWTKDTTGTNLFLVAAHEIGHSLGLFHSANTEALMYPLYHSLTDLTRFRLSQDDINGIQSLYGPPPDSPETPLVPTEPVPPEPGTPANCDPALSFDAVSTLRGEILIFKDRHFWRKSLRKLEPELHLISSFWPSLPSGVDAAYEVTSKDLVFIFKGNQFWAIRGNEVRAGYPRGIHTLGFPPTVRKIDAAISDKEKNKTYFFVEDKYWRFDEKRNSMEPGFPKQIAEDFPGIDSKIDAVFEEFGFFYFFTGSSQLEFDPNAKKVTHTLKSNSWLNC
# assay summary: MMP selectivity assay, MMP-3
# experimental conditions: Table 2 selectivity profile
measured quantity: IC50

Please look up its IC50: CCC1(c2cnccc2Sc2ccc(OCc3cccc(C)c3)cc2)NC(=O)NC1=O (stereo not shown)
100 to 1000 nM

Please look up its IC50: O=C1NC(=O)C(c2sccc2Sc2ccc(OCc3ccccc3CO)cc2)N1 (stereo not shown)
1000 to 10000 nM

Please look up its IC50: O=C1NC(=O)C(c2ccncc2Sc2ccc(OCc3cccc(CO)c3)cc2)N1 (stereo not shown)
100 to 1000 nM

Please look up its IC50: Cc1cc(COc2ccc(Sc3ccsc3C3NC(=O)NC3=O)cc2)ccn1 (stereo not shown)
100 to 1000 nM

Please look up its IC50: Cc1cc(COc2ccc(Sc3ccncc3C3NC(=O)NC3=O)cc2)ccn1 (stereo not shown)
1000 to 10000 nM

State the recorded IC50 for every item in the following list.
1. Cc1cc(COc2ccc(Sc3ncoc3C3NC(=O)NC3=O)cc2)ccn1 (stereo not shown)
2. O=C1NC(=O)C(c2sccc2Sc2ccc(OCc3cccc(CO)c3)cc2)N1 (stereo not shown)

1. 1000 to 10000 nM
2. 100 to 1000 nM

====

# assayed system: recombinant human MMP-8 (Homo sapiens, UniProt P22894)
# Sequence (P22894 101-467): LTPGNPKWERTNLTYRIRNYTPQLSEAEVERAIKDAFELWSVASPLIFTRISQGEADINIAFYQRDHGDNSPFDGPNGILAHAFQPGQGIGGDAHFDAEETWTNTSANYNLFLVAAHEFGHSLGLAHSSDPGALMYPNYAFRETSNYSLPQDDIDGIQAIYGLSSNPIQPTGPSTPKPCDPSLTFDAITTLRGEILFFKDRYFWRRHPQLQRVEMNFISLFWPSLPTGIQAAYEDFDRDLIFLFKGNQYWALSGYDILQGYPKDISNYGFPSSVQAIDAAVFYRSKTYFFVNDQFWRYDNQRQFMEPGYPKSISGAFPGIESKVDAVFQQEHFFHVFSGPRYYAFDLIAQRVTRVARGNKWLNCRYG
# assay summary: MMP selectivity assay, MMP-8
# experimental conditions: Table 2 selectivity profile
What IC50 was measured for each of the following?

Please look up its IC50: Cc1cc(COc2ccc(Sc3ncoc3C3NC(=O)NC3=O)cc2)ccn1 (stereo not drawn)
100 to 1000 nM

Please look up its IC50: O=C1NC(=O)C(c2sccc2Sc2ccc(OCc3cccc(CO)c3)cc2)N1 (stereo not drawn)
100 to 1000 nM

Please look up its IC50: O=C1NC(=O)C(c2sccc2Sc2ccc(OCc3ccccc3CO)cc2)N1 (stereo not drawn)
1000 to 10000 nM

State the recorded IC50 for every item in the following list.
1. Cc1cc(COc2ccc(Sc3ccncc3C3NC(=O)NC3=O)cc2C)ccn1 (stereo not drawn)
2. Cc1cc(COc2ccc(Sc3ccsc3C3NC(=O)NC3=O)cc2)ccn1 (stereo not drawn)
3. O=C1NC(=O)C(c2ccncc2Sc2ccc(OCc3ccccc3CO)cc2)N1 (stereo not drawn)
4. Cc1cc(COc2ccc(Sc3ccncc3C3NC(=O)NC3=O)c(F)c2)ccn1 (stereo not drawn)
5. Cc1cc(COc2ccc(Sc3ccncc3C3NC(=O)NC3=O)c(Cl)c2)ccn1 (stereo not drawn)

1. 1000 to 10000 nM
2. 10 to 100 nM
3. 1000 to 10000 nM
4. 100 to 1000 nM
5. 100 to 1000 nM

Please look up its IC50: NC(=O)c1cccc(COc2ccc(Sc3ccncc3C3NC(=O)NC3=O)cc2)c1 (stereo not drawn)
100 to 1000 nM

====

What pIC50 was measured for each of the following?
# assayed system: recombinant human MMP-8 (Homo sapiens, UniProt P22894)
# assay summary: MMP selectivity assay, MMP-8
# experimental conditions: Table 2 selectivity profile
pIC50: −log10 of the molar value.

Some entries whose results are on file:
Reported pIC50 for recombinant human MMP-8 (Homo sapiens, UniProt P22894), given O=C1NC(=O)C(c2cnccc2Sc2ccc(OCc3cccc(O)c3)cc2)N1 (stereo not shown) ?
5.00 to 6.00

Reported pIC50 for recombinant human MMP-8 (Homo sapiens, UniProt P22894), given Cc1cc(COc2ccc(Sc3cnn(C)c3C3NC(=O)NC3=O)cc2)ccn1 (stereo not shown) ?
6.00 to 7.00

Reported pIC50 for recombinant human MMP-8 (Homo sapiens, UniProt P22894), given Cc1cc(COc2ccc(Sc3ccncc3C3NC(=O)NC3=O)cc2)ccn1 (stereo not shown) ?
5.00 to 6.00

Reported pIC50 for recombinant human MMP-8 (Homo sapiens, UniProt P22894), given O=C1NC(=O)C(c2cnccc2Sc2ccc(OCc3cccc(CO)c3)cc2)N1 (stereo not shown) ?
< 5.00

State the recorded pIC50 for every item in the following list.
1. CCC1(c2cnccc2Sc2ccc(OCc3cccc(C)c3)cc2)NC(=O)NC1=O (stereo not shown)
2. O=C1NC(=O)C(c2ccncc2Sc2ccc(OCc3cccc(CO)c3)cc2)N1 (stereo not shown)

1. 5.00 to 6.00
2. 5.00 to 6.00

Reported pIC50 for recombinant human MMP-8 (Homo sapiens, UniProt P22894), given Cc1cc(COc2ccc(Sc3ncn(C)c3C3NC(=O)NC3=O)cc2)ccn1 (stereo not shown) ?
6.00 to 7.00

====

# assayed system: recombinant human MMP-14 (Homo sapiens)
# assay summary: MMP selectivity assay, MMP-14
# Assay type: biochemical
# experimental conditions: Table 2 selectivity profile
pIC50: −log10 of the molar value.
What pIC50 was measured for each of the following?

Some entries whose results are on file:
Please look up its pIC50: Cc1cc(COc2ccc(Sc3cnn(C)c3C3NC(=O)NC3=O)cc2)ccn1 (stereo not shown) [OC-12]
5.00 to 6.00

Please look up its pIC50: O=C1NC(=O)C(c2cnccc2Sc2ccc(OCc3cccc(O)c3)cc2)N1 (stereo not shown) [PC-10]
< 5.00

Please look up its pIC50: O=C1NC(=O)C(c2ccncc2Sc2ccc(OCc3ccccc3CO)cc2)N1 (stereo not shown) [PC-12]
< 5.00

Please look up its pIC50: Cc1cc(COc2ccc(Sc3ccncc3C3NC(=O)NC3=O)c(Cl)c2)ccn1 (stereo not shown) [PC-51]
5.00 to 6.00

Please look up its pIC50: CCC1(c2cnccc2Sc2ccc(OCc3cccc(C)c3)cc2)NC(=O)NC1=O (stereo not shown) [PC-22]
5.00 to 6.00

State the recorded pIC50 for every item in the following list.
1. O=C1NC(=O)C(c2ccncc2Sc2ccc(OCc3cccc(CO)c3)cc2)N1 (stereo not shown) [PC-13]
2. Cc1cc(COc2ccc(Sc3ccncc3C3NC(=O)NC3=O)cc2)ccn1 (stereo not shown) [PC-16]
3. Cc1cc(COc2ccc(Sc3ccncc3C3NC(=O)NC3=O)cc2C)ccn1 (stereo not shown) [PC-48]
4. O=C1NC(=O)C(c2cnccc2Sc2ccc(OCc3cccc(CO)c3)cc2)N1 (stereo not shown) [PC-8]
5. Cc1cc(COc2ccc(Sc3ncoc3C3NC(=O)NC3=O)cc2)ccn1 (stereo not shown) [OC-7]
6. Cc1cc(COc2ccc(Sc3ncn(C)c3C3NC(=O)NC3=O)cc2)ccn1 (stereo not shown) [OC-13]
7. Cc1cc(COc2ccc(Sc3ccncc3C3NC(=O)NC3=O)c(F)c2)ccn1 (stereo not shown) [PC-50]
8. O=C1NC(=O)C(c2sccc2Sc2ccc(OCc3ccccc3CO)cc2)N1 (stereo not shown) [TC5]

1: < 5.00; 2: 5.00 to 6.00; 3: < 5.00; 4: < 5.00; 5: < 5.00; 6: 6.00 to 7.00; 7: 5.00 to 6.00; 8: < 5.00

State the recorded pIC50 for every item in the following list.
1. O=C1NC(=O)C(c2sccc2Sc2ccc(OCc3cccc(CO)c3)cc2)N1 (stereo not shown) [TC4]
2. Cc1cc(COc2ccc(Sc3ccsc3C3NC(=O)NC3=O)cc2)ccn1 (stereo not shown) [TC8]
3. NC(=O)c1cccc(COc2ccc(Sc3ccncc3C3NC(=O)NC3=O)cc2)c1 (stereo not shown) [PC-28]

1. 5.00 to 6.00
2. 6.00 to 7.00
3. 5.00 to 6.00

====

# assayed system: recombinant human MMP-12 catalytic domain (Homo sapiens, UniProt P39900)
# Construct: recombinant human MMP-12 catalytic domain
# Sequence (P39900 106-268 limits assumed): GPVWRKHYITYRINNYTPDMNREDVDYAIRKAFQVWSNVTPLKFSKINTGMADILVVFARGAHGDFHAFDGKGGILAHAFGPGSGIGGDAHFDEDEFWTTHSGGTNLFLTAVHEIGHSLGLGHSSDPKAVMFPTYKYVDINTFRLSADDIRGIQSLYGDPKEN
# assay summary: MMP-12 inhibitory assay (fluorogenic substrate cleavage)
# experimental conditions: readout at 30 minutes, 37° C., Table 1
pIC50: −log10 of the molar value.
What pIC50 was measured for each of the following?

Some entries whose results are on file:
Please look up its pIC50: Cc1cc(COc2ccc(Sc3ccncc3C3NC(=O)NC3=O)c(C)c2)ccn1 (stereo not drawn) [PC-42]
7.00 to 8.00

Please look up its pIC50: Cc1cccc(COc2ccc(Sc3cccnc3C3NC(=O)NC3=O)cc2)c1 (stereo not drawn) [PC-3]
7.00 to 8.00

Please look up its pIC50: O=C1NC(=O)C(c2cnccc2Sc2ccc(OCc3ccnc(O)c3)cc2)N1 (stereo not drawn) [PC-35]
6.00 to 7.00

Please look up its pIC50: Cc1cccc(COc2ccc(Sc3ncn(C)c3C3NC(=O)NC3=O)cc2)c1 (stereo not drawn) [OC-6]
7.00 to 8.00

Please look up its pIC50: CC(C)Oc1cccc(COc2ccc(Sc3ccsc3C3NC(=O)NC3=O)cc2)c1 (stereo not drawn) [TC3]
6.00 to 7.00

Please look up its pIC50: Cc1cccc(COc2ccc(Sc3ncoc3C3NC(=O)NC3=O)cc2)c1 (stereo not drawn) [OC-10]
7.00 to 8.00

Please look up its pIC50: Cc1cccc(COc2ccc(Sc3ccccc3C3NC(=O)NC3=O)cc2)c1 (stereo not drawn) [OC-1]
7.00 to 8.00

Please look up its pIC50: COc1ccc(CN2C(=O)NC(c3cnccc3Sc3ccc(OCc4ccnc(C)c4)cc3)C2=O)cc1 (stereo not drawn) [PC-55]
6.00 to 7.00

Continuing:
Please look up its pIC50: Cc1cccc(COc2ccc(Oc3ccncc3C3NC(=O)NC3=O)cc2)c1 (stereo not drawn) [PC-26]
7.00 to 8.00

// provenance: patent US20190352288A1
